# assay.system: Msn1 (UniProt P22148)
# Sequence: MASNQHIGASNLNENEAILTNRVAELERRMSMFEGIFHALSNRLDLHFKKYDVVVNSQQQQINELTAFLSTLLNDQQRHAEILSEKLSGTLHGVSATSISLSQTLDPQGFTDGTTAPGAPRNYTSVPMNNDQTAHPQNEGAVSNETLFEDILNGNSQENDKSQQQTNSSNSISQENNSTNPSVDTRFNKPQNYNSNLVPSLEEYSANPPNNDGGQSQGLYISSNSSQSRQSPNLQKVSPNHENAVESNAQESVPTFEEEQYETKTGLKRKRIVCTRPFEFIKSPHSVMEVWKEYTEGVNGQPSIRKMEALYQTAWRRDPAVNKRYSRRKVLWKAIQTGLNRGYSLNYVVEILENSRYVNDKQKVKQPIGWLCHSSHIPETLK
# protocol: PBM E-score (8-mer binding enrichment) (E-score (-0.5 to 0.5)); higher = stronger / more preferred TF binding
# test.context: protein concentration: 200 nM; construct: GST-full length
In all, about 33,000 sequences were measured (“E-score (-0.5 to 0.5)”: median about -0.013, highest 2% from about 0.3 on). The sample as a whole holds a higher share of the highest values than the screen did.
Answer Criterion not met if PBM E-score is under 0.2, and Criterion met if it is 0.2 or more.

These solved cases illustrate the format of a correct answer.
AATGTACG :: Criterion met
GATTGTCA :: Criterion met
AGGTACCA :: Criterion not met

Q. Is it the case that "GATGTATA" has PBM E-score reaching or exceeding 0.2?
A. Criterion not met

Q. Quick check: does "AATGTATA" have PBM E-score greater than or equal to 0.2?
A. Criterion met

Q. Could you tell me if the measured PBM E-score of "CATTGTCA" reaches 0.2 or more?
A. Criterion not met

Q. Decide: is the reported value of PBM E-score for "ATGCGTGC" equal to or greater than 0.2?
A. Criterion not met

====

# assay.system: Msn1 (UniProt P22148)
# Sequence: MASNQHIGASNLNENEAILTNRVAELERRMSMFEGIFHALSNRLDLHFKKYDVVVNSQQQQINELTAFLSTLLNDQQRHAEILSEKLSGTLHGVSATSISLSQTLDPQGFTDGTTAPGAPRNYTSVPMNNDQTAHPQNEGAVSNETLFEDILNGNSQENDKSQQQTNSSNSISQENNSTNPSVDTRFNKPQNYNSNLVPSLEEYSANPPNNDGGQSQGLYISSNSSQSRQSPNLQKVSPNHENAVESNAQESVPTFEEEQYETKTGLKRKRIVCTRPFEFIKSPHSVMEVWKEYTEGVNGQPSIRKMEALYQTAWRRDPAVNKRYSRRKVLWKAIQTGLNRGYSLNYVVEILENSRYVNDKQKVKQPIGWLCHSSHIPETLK
# protocol: PBM E-score (8-mer binding enrichment) (E-score (-0.5 to 0.5)); higher = stronger / more preferred TF binding
# test.context: protein concentration: 200 nM; construct: GST-full length
Over roughly 33,000 sequences, “E-score (-0.5 to 0.5)” has its median near -0.013; the highest 2% begin near 0.3. The list comes from a sample in which the highest values are over-represented; it also holds close analogues and randomly drawn sequences.
Entries annotated with measured PBM E-score
Give only the figure.

Solved cases (8 shown):
ATCCTAAA :: -0.0285
GTCCTAGA :: 0.342
CTGACAAG :: 0.161
AGAACTCT :: -0.119
CATCTCGA :: 0.149
ATCCTACA :: -0.189
CAGCGTTA :: -0.131
GCTCAAGA :: -0.102

Q. Reported PBM E-score for "CAACTATG" : what is it?
A. 0.161

Q. # input sequence: "CGCAAAGC" ; wanted: its PBM E-score
A. 0.0415

Q. // returns reported PBM E-score for input "AATAGCTG"
A. -0.128

Q. Which PBM E-score value is on record for "AAAAAGTG" ?
A. -0.0627

Q. Given the sequence "GCGGATCA" , what is its reported PBM E-score?
A. -0.116

====

Recorded PBM E-score by entry
# assay.system: Msn1 (UniProt P22148)
# Sequence: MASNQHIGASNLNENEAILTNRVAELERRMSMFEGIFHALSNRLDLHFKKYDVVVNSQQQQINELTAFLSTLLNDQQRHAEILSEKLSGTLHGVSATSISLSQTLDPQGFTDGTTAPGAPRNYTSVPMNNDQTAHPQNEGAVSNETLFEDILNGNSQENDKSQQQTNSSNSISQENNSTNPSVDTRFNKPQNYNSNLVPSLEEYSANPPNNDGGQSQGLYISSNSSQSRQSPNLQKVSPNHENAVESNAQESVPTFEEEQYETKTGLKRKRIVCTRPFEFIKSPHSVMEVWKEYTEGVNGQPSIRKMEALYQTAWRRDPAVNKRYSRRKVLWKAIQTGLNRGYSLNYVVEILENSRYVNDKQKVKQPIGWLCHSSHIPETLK
# protocol: PBM E-score (8-mer binding enrichment) (E-score (-0.5 to 0.5)); higher = stronger / more preferred TF binding
# test.context: protein concentration: 200 nM; construct: GST-full length
Over roughly 33,000 sequences, “E-score (-0.5 to 0.5)” has its median near -0.013; the highest 2% begin near 0.3. For the sample, the highest values were picked, then their nearest neighbours and some sequences at random.
API doc: respond with a numeric literal and nothing else, no unit.

Q. Look up PBM E-score for this sequence: "AGGCGTAG"
A. -0.189

Q. Dear colleague, I am looking for the recorded PBM E-score of the following sequence: "GCGGGGCA"
A. -0.147

Q. Recorded PBM E-score for "CACAAGCC" , please?
A. -0.139

Q. PBM E-score for "AAATGTAT" ?
A. 0.28

Q. Param item = "AGAGGAGG" ; retrieve measured PBM E-score.
A. -0.382

Q. What does the data say about its PBM E-score? Entry: "ACATTGGC"
A. -0.0178

Q. Quick check: PBM E-score of "ATCGTGCC" ?
A. 0.0402

Q. Reported PBM E-score for "ACTAGACG" : what is it?
A. 0.112

Q. Fill blank: measured PBM E-score of the sequence "CGAGAGTC" is ____.
A. -0.131

Q. Endpoint output: PBM E-score of "GTGACTGA" . Value?
A. 0.0999

====

# assay.system: Msn1 (UniProt P22148)
# Sequence: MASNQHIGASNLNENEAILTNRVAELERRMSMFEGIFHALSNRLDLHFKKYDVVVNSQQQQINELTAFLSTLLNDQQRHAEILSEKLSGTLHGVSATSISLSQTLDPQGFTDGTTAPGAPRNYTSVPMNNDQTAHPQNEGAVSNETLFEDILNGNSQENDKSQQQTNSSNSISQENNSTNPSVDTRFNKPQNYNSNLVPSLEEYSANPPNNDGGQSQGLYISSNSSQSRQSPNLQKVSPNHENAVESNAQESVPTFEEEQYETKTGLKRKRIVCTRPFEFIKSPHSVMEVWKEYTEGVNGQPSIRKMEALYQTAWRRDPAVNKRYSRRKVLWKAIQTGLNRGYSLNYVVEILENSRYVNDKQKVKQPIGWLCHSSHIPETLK
# protocol: PBM E-score (8-mer binding enrichment) (E-score (-0.5 to 0.5)); higher = stronger / more preferred TF binding
# test.context: protein concentration: 200 nM; construct: GST-full length
Whole data set: some 33,000 sequences, median “E-score (-0.5 to 0.5)” near -0.013, cut for the highest 2% near 0.3. The sample as a whole holds a higher share of the highest values than the screen did.
measure.name: PBM E-score
# output: bare number, no unit

For orientation, consider the following solved cases.
CGGTCCTA :: -0.185
CCCCAGCC :: -0.271
CTGTCCTA :: 0.346
TCCATCCA :: -0.00245
ACAAAATC :: 0.352

Q. Entry "GATAAGGC" has what PBM E-score?
A. 0.0376

Q. Param item = "ACAATTGA" ; retrieve measured PBM E-score.
A. 0.257

Q. Could you share which PBM E-score value was measured for "AAAATTGG" ?
A. 0.00283

Q. Quick one: PBM E-score of "ACAACCCA" ?
A. 0.0013

====

# assay.system: Msn1 (UniProt P22148)
# Sequence: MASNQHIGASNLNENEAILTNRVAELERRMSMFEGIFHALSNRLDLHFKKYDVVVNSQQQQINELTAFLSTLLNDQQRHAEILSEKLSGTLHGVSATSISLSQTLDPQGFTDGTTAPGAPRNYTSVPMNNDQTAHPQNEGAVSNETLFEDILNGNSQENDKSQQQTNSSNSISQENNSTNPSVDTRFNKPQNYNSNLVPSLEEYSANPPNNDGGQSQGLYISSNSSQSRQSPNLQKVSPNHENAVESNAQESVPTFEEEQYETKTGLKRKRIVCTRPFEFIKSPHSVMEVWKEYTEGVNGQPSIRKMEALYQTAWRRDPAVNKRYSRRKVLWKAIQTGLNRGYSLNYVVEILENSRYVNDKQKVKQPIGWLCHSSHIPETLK
# protocol: PBM E-score (8-mer binding enrichment) (E-score (-0.5 to 0.5)); higher = stronger / more preferred TF binding
# test.context: protein concentration: 200 nM; construct: GST-full length
Over roughly 33,000 sequences, “E-score (-0.5 to 0.5)” has its median near -0.013; the highest 2% begin near 0.3. For the sample, the highest values were picked, then their nearest neighbours and some sequences at random.
Catalogue of sequences with associated PBM E-score
Please respond with just the number, no unit label.

Look over these answered cases.
TACATCTA :: 0.105
CACTTGTC :: 0.408
CAACGGAC :: 0.121
CGCTTGTA :: 0.211
GACATCTA :: 0.404
CGCTTGTC :: 0.345
GCGTCCCA :: 0.0223
AACTTGAG :: -0.212

Q. GET /values?readout=PBM E-score&system=Msn1 (UniProt P22148)&item= "ATTCGGCC"
A. 0.0205

Q. Give recorded PBM E-score with Msn1 (UniProt P22148) for the following sequence: "AACTTGAT"
A. 0.321

Q. Hi! What's the reported PBM E-score for "GGGTCCCA" on Msn1 (UniProt P22148)?
A. -0.216

Q. # query: PBM E-score | item "CTGTCCCC" | system: Msn1 (UniProt P22148)
A. 0.00412

Q. Notebook entry, Msn1 (UniProt P22148) assay: PBM E-score of "ATGTCCCA" = ?
A. 0.485

Q. Query for Msn1 (UniProt P22148): what PBM E-score does the record show for "TAACAACA" ?
A. 0.0839

Q. API: value(readout= PBM E-score, system= Msn1 (UniProt P22148), query= "ATCCTAGC" )
A. -0.118

Q. Give PBM E-score (Msn1 (UniProt P22148)) of the following sequence: "GCGATGAC"
A. 0.0728

Q. Test system Msn1 (UniProt P22148); read-out PBM E-score; what value for "AACTTGTC" ?
A. 0.391
